Test system: mouse ACVR2A (mouse, UniProt P27038 20-135, limits assumed); also: test concentration or dose not given here
Sequence (P27038 20-135 limits assumed): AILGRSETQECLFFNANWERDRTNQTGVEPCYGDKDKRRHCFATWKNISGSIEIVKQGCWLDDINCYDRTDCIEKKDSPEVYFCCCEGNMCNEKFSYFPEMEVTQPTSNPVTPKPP
Method: ELISA
Recorded optical density values for a group of binders are listed next.

| Binder | Unit of measurement | optical density |
| --- | --- | --- |
| 371_D07 (antibody, V domains shown, Group I) VH: EVQLLESGGGLVQPGGSLRLSCAASGFTFDDYGMNWVRQAPGKGLEWVANINYNGGYKGYADSVKGRFTISRDNSKNTLYLQMNSLRAEDTAVYYCARAANWHDTHLDYWGQGTLVTVSS VL: DIQMTQSPSSLSASVGDRVTITCRASQSILTYLNWYQQKPGKAPKLVIYAATSRASGVPSRFSGSGSGTDFTLTISSLQPEDFATYYCQQSYELPLTFGGGTKVEIK | OD | 2.9 |
| 366_E07 (antibody, V domains shown, Group II) VH: EVQLLESGGGLVQPGGSLRLSCAASGFTFDSYGMHWVRQAPGKGLEWVAGINYNGGYTSYADSVKGRFTISRDNSKNTLYLQMNSLRAEDTAVYYCARAATWHDTALDYWGQGTLVTVSS VL: DIQMTQSPSSLSASVGDRVTITCRASQSILTYLNWYQQKPGKAPKLVIYAATSRHSGVPSRFSGSGSGTDFTLTISSLQPEDFATYYCQQSDNSPLTFGGGTKVEIK | OD | 1.86 |
| 366_A04 (antibody, V domains shown, Group I) VH: EVQLLESGGGLVQPGGSLRLSCAASGFTFSSYGMNWVRQAPGKGLEWVAGINYNGGYTSYADSVKGRFTISRDNSKNTLYLQMNSLRAEDTAVYYCARAANWHDTALDYWGQGTLVTVSS VL: DIQMTQSPSSLSASVGDRVTITCRASQSILTYLNWYQQKPGKAPKLVIYAATSLASGVPSRFSGSGSGTDFTLTISSLQPEDFATYYCQQSDDSPLTFGGGTKVEIK | OD | 1.99 |
